FYI, the data here is from patent US20230278972A1.

# Tested on: pigweed (Amaranthus retroflexus)
# Protocol summary: Test A preemergence, pigweed
# Assay type: in vivo
# Experimental parameters: 31 g ai/ha, visual injury, 0 to 100 scale (0 no effect, 100 complete control), approx. 10 days
Plant response rating, Pigweed for assorted molecules
# print the numeric value only

Some solved cases for reference:
# Molecule, Plant response rating, Pigweed
data = [
    ("COC1CCCN(C(=O)c2cc(N(C(C)=O)S(=O)(=O)C(F)(F)F)c(C)cc2C)C1 (stereo not shown)", 50),
    ("Cc1cc(C)c(C2=NOC3(C2)CC(C)CC(C)C3)cc1NS(=O)(=O)C(F)(F)F (single isomer, unassigned) [Compound 168]", 0),
    ("COC1CCCN(C(=O)c2cc(N(C(=O)C(C)C)S(=O)(=O)C(F)(F)F)c(C)cc2C)C1 (stereo not shown)", 60),
    ("Cc1cc(C)c(N(COC(=O)c2ccccc2)S(=O)(=O)C(F)(F)F)cc1C1=NOC2(CCCC2)C1", 30),
    ("Cc1cc(Cl)c(NS(=O)(=O)C(F)(F)F)cc1C(=O)N1CCOCC1(C)C", 80),
    ("Cc1cc(C)c(N(S(=O)(=O)C(F)(F)F)S(=O)(=O)C(F)(F)F)cc1N1CC2(CCOCC2)OC1=O", 100),
]

The record that follows has no Plant response rating, Pigweed shown yet.
Exercise: Sample Cc1cc(C)c(N(S(=O)(=O)C(F)(F)F)S(=O)(=O)C(F)(F)F)cc1C(=O)N1CCCC(F)C1 (stereo not shown) — what was its Plant response rating, Pigweed?
Key: 100
